The reported measurements were obtained from patent US20220064286A1.

Target: cynomolgus monkey (cyno) TIGIT protein (cynomolgus monkey, UniProt A0A7N9I9V4 89-209)
Sequence (A0A7N9I9V4 entry or part of it): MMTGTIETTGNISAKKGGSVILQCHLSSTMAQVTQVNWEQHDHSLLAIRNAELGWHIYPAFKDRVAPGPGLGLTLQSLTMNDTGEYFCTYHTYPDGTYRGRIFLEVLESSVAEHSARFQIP
Assay: SPR, captured mAb
experimentalEndpoint: kon

State its kon for this binder: 7.4A3.C96S.Q1E (antibody, V domains shown, also called 7.4A3.Q1E.C96S) VH: EVQLVQSGSDLKKPGASVRVSCKASGYTFTSYPMNWVRQAPGHGLEWMGWINTNTGNPTYVQGFTGRFVFSLDTSVNTAYLQISSLKAEDTAVYFCARTGGHTYDSYAFDVWGQGTMVTVSS VL: DIQLTQSPTFLSASVGDRVTITCRASQVISSSLAWYQQNPGKAPKLLIYAASTLQSGVPSRFSGSGSGTEFTLTISSLQPEDFVTYYCQHLHGYPSNFGQGTKVEIK
276000 M⁻¹ s⁻¹

State its kon for this binder: 4.1A4 (antibody, V domains shown, OMT rat-derived human antibody; also called 4.1A4.Q1.C96) VH: QVQLVQSGSELKKPGASVKVSCKASGYTLTNYPMNWVRQAPGRGLEWMGWINTNTGSPAYAQDFTERFVFSLDTSVTTAYLQISSLKAEDTAVYYCARTAITSVYHFDYWGQGTLVTVSS VL: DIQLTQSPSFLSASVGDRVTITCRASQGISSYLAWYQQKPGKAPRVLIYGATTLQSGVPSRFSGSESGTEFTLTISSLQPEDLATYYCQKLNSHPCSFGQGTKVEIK
266000 M⁻¹ s⁻¹
